Values were extracted from ChEMBL document CHEMBL4433257.

Test system: LoVo
procedureSummary: Cytotoxicity against human LoVo cells incubated for 48 hrs by MTT assay
Format: functional, cell-based
Friendly reminder: IC50 below 10 µM is fulfilled, at or above is not fulfilled.

Consider the following illustrative entries.
COc1cc([C@@H]2c3cc4c(cc3[C@@H](O[C@@H]3O[C@@H]5CO[C@@H](C)O[C@H]5[C@H](O)[C@H]3O)[C@H]3COC(=O)[C@H]23)OCO4)cc(OC)c1O [ETOPOSIDE] ... not fulfilled
COc1cc([C@@H]2c3cc4c(cc3[C@@H](n3cc(COc5cc(=O)oc6ccccc56)nn3)[C@H]3COC(=O)[C@H]23)OCO4)cc(OC)c1O ... not fulfilled
COc1cc([C@@H]2c3cc4c(cc3[C@@H](n3cc(COc5cc(=O)oc6ccc(Br)cc56)nn3)[C@H]3COC(=O)[C@H]23)OCO4)cc(OC)c1O ... not fulfilled
COc1ccc2c(OCc3cn([C@@H]4c5cc6c(cc5[C@@H](c5cc(OC)c(O)c(OC)c5)[C@H]5C(=O)OC[C@@H]54)OCO6)nn3)cc(=O)oc2c1 ... not fulfilled
COc1cc([C@@H]2c3cc4c(cc3[C@@H](n3cc(COc5cc(=O)oc6cc(Br)ccc56)nn3)[C@H]3COC(=O)[C@H]23)OCO4)cc(OC)c1O ... not fulfilled

Prompt: Please determine if `COc1cc([C@@H]2c3cc4c(cc3[C@@H](n3cc(CNc5cc(=O)oc6cc(Br)ccc56)nn3)[C@H]3COC(=O)[C@H]23)OCO4)cc(OC)c1O` is below 10 µM in terms of IC50.
Response: fulfilled
